Here we gather pIC50 data for UniProt:Q12884 reported by several publications.
Scale for pIC50: -log10 of concentration given in mol/L; no unit attached.

# example entries with known answers
Compound | pIC50
COCCCNC(=O)c1csc2c(=O)n(Cc3ccccc3C#N)c(N3CCC[C@@H](N)C3)nc12 | 4.55
N#C[C@@H]1CC(F)(F)CN1C(=O)CNC(=O)c1ccnc2ccc(OCCCCNc3c(NCCNC(=O)CN4CCN(CC(=O)O)CCN(CC(=O)O)CCN(CC(=O)O)CC4)c(=O)c3=O)cc12 | 9.05
N#C[C@@H]1CSCN1C(=O)CNC(=O)c1ccnc2ccc(-c3ccnn3[C@H]3CCCCO3)cc12 (mixture of isomers) | 10.06
N#C[C@@H]1CSCN1C(=O)CNC(=O)c1ccnc2ccc(N3CC4CC4C3)cc12 (stereo partly shown) | 10.19
CO[C@@H]1CN(c2ccc3nccc(C(=O)NCC(=O)N4CSC[C@H]4C#N)c3c2)[C@H]1C | 9.92
N#C[C@@H]1CSCN1C(=O)CNC(=O)c1ccnc2ccc(N3C[C@@H](F)[C@@H](F)C3)cc12 | 10.16

Would you kindly look at the next entry?
For the compound CC(C)Oc1ccc2nccc(C(=O)NCC(=O)N3[C@H](C#N)C[C@@H]4C[C@@H]43)c2c1 , the measured pIC50 on UniProt:Q12884 was 8.39

---

Here we gather pIC50 data for Prolyl endopeptidase FAP (Homo sapiens) reported by several publications.
Scale for pIC50: -log10 of concentration given in mol/L; no unit attached.

# example entries with known answers
Smiles notation | pIC50
COCC[C@@H]1COCCN1c1ccc2nccc(C(=O)NCC(=O)N3CSC[C@H]3C#N)c2c1 | 9.80
CC1CN(c2ccc3nccc(C(=O)NCC(=O)N4CSC[C@H]4C#N)c3c2)C1 | 9.52

For the molecule Cc1ccc2nc(C)cc(C(=O)NCC(=O)N3[C@H](C#N)C[C@@H]4C[C@@H]43)c2c1 , the measured pIC50 on Prolyl endopeptidase FAP (Homo sapiens) was 7.10

For the molecule CC(C)(F)c1ccc2c(C(=O)NCC(=O)N3[C@H](C#N)C[C@@H]4C[C@@H]43)ccnc2c1 , the measured pIC50 on Prolyl endopeptidase FAP (Homo sapiens) was 9.01

For the molecule N#Cc1ccccc1Cn1c(N2CCC[C@@H](N)C2)nc2c(C(=O)NCC3CC3)csc2c1=O , the measured pIC50 on Prolyl endopeptidase FAP (Homo sapiens) was 4.84

For the molecule N#C[C@@H]1C[C@@H]2C[C@@H]2N1C(=O)CNC(=O)c1ccnc2cc(C(F)F)ccc12 , the measured pIC50 on Prolyl endopeptidase FAP (Homo sapiens) was 8.82

For the molecule CC(C)(F)c1ccc2nccc(C(=O)NCC(=O)N3[C@H](C#N)C[C@@H]4C[C@@H]43)c2c1 , the measured pIC50 on Prolyl endopeptidase FAP (Homo sapiens) was 8.42

For the molecule N#C[C@@H]1CSCN1C(=O)CNC(=O)c1ccnc2ccc(-n3ccc(-c4ccccc4)c3)cc12 , the measured pIC50 on Prolyl endopeptidase FAP (Homo sapiens) was 10.17
